Cited source for all entries: the array DNA melting data of Ke et al. (doi:10.1101/2024.01.08.574731)

Listing: Tm of selected sequences
Experiment: melting temperature; fluorescence melt of hairpins on a sequencing array, two-state fit, raised by 9.35 °C to match UV melts
Settings: sodium 0.088 M
Express your answer in °C, writing the number without its unit.

GATCAATAACTTGATC ((((((....)))))); 39.4
GTCATCGAAAGATGGGAC ((((((....)))..))); 34.1
GGGTGAGGAAACTCGTCC ((..(((....)))..)); 34.3
CGCATGCGGAAACGCGCG (((..(((....)))))); 52.1

Looking up GATACCGAAAGGTGGATC ((((((....)))..))) , I see its Tm listed as 30.2

Looking up CGTCACCGGAAACGGACG (((..(((....)))))) , I see its Tm listed as 36.4
